Molecular target: dopamine D2 receptors (Homo sapiens (Human), UniProt P14416)
Sequence (P14416 whole entry, the tested form may be a part): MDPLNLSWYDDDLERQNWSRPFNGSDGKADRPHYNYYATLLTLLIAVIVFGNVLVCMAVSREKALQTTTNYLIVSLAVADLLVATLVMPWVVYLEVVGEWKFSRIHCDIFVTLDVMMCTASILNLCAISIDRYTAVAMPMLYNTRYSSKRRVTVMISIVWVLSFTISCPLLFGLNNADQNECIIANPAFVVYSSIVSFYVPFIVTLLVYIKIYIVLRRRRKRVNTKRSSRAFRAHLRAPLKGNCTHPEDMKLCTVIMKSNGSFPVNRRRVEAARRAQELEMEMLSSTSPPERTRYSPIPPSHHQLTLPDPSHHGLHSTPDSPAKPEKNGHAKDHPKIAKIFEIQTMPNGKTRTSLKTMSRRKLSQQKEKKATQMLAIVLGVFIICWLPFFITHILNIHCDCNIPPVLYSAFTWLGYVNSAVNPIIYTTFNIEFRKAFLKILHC
Experiment: Dopamine D2 receptor β-arrestin2 BRET (recruitment);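 note: cells co-expressing Rluc-fused D2 receptor, GRK2 and GFP2-fused β-arrestin2, BRET read with coelenterazine 400a after adding drug over a concentration series, in duplicate wells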
Type: cell-based

[
  {
    "compound": "c1csc(CCN2CCN3c4cccc5scc(c45)CC3C2)c1 (centres unmarked) [Compound I-6]",
    "system_tested": "dopamine D2 receptors (Homo sapiens (Human), UniProt P14416)",
    "unit_of_measure": "nM",
    "EC50": 299
  },
  {
    "compound": "OCCN1CCN2c3cccc4scc(c34)CC2C1 (centres unmarked) [Compound I-3]",
    "system_tested": "dopamine D2 receptors (Homo sapiens (Human), UniProt P14416)",
    "unit_of_measure": "nM",
    "EC50": 189
  }
]

====

Target: dopamine D2 receptors (Homo sapiens (Human))
Assay: Dopamine D2 receptor β-arrestin2 BRET (recruitment)
Assay type: cell-based
Settings: D2 receptor, β-arrestin2 pathway; read-out: β-arrestin2 BRET EC50
quantity: EC50 (nM)

[
  {
    "compound": "CN(C)C(=O)N[C@H]1CC[C@H](CCN2CCN3c4cccc5scc(c45)C[C@@H]3C2)CC1 [(+)-I-27]",
    "quantity": "EC50",
    "quantitative_readout": 16
  },
  {
    "compound": "Fc1ccc(CCN2CCN3c4cccc5scc(c45)CC3C2)cc1 (centres unmarked)",
    "quantity": "EC50",
    "quantitative_readout": 370
  },
  {
    "compound": "c1ccc(OCCN2CCN3c4cccc5scc(c45)CC3C2)cc1 (centres unmarked)",
    "quantity": "EC50",
    "quantitative_readout": 164
  },
  {
    "compound": "COc1cc2c(cc1OC)C(=O)N(CCCCN1CCN3c4cccc5scc(c45)CC3C1)C2 (centres unmarked)",
    "quantity": "EC50",
    "quantitative_readout": 130
  },
  {
    "compound": "CCCN1CCN2c3cccc4scc(c34)CC2C1 (centres unmarked)",
    "quantity": "EC50",
    "quantitative_readout": 19.3
  },
  {
    "compound": "O=C1CCc2ccc(OCCCCN3CCN4c5cccc6scc(c56)CC4C3)cc2N1 (centres unmarked)",
    "quantity": "EC50",
    "quantitative_readout": 464
  },
  {
    "compound": "c1cc2c3c(csc3c1)CC1CN(CCCOc3ccc4c(c3)OCO4)CCN21 (centres unmarked)",
    "quantity": "EC50",
    "quantitative_readout": 289
  },
  {
    "compound": "O=C1[C@H]2CCCC[C@H]2C(=O)N1CCCCN1CCN2c3cccc4scc(c34)CC2C1 (some centres unmarked)",
    "quantity": "EC50",
    "quantitative_readout": 44.8
  },
  {
    "compound": "O=C(N[C@H]1CC[C@H](CCN2CCN3c4cccc5scc(c45)CC3C2)CC1)N1CCCC1 (some centres unmarked)",
    "quantity": "EC50",
    "quantitative_readout": 38.7
  },
  {
    "compound": "c1cc2c3c(csc3c1)CC1CN(CCCCOc3ccc4scnc4c3)CCN21 (centres unmarked)",
    "quantity": "EC50",
    "quantitative_readout": 233
  },
  {
    "compound": "O=C1c2ccccc2CCCN1CCCCN1CCN2c3cccc4scc(c34)CC2C1 (centres unmarked)",
    "quantity": "EC50",
    "quantitative_readout": 61.5
  },
  {
    "compound": "O=c1ccc2ccc(OCCCN3CCN4c5cccc6scc(c56)CC4C3)cc2[nH]1 (centres unmarked)",
    "quantity": "EC50",
    "quantitative_readout": 91.6
  },
  {
    "compound": "CN(C)C(=O)N[C@H]1CC[C@H](CCN2CCN3c4cccc5scc(c45)CC3C2)CC1 (some centres unmarked) [Compound I-27]",
    "quantity": "EC50",
    "quantitative_readout": 10.2
  },
  {
    "compound": "c1cc2c3c(csc3c1)CC1CN(CC3CC3)CCN21 (centres unmarked)",
    "quantity": "EC50",
    "quantitative_readout": 11.2
  }
]

====

Biological target: dopamine D2 receptors (Homo sapiens (Human), UniProt P14416)
Experiment: Dopamine D2 receptor Gαi1 BRET (G protein trimer dissociation);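 note: transfected cells co-expressing D2 receptor, Gαi1-Rluc, Gβ3 and Gγ9-GFP, BRET with coelenterazine 400a at 5 µM read as G protein trimer dissociation, graded drug concentrations in duplicate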
Assay type: cell-based
pEC50: −log10 of the molar value.
Here, each record is paired with measured pEC50 data.

[
  {
    "compound": "c1csc(CCN2CCN3c4cccc5scc(c45)CC3C2)c1 (centres unmarked) [Compound I-6]",
    "pEC50": 6.47
  },
  {
    "compound": "OCCN1CCN2c3cccc4scc(c34)CC2C1 (centres unmarked) [Compound I-3]",
    "pEC50": 7.39
  }
]

====

Here, each record is paired with measured EC50 data.
Molecular target: UniProtKB P08908
Sequence (P08908 whole entry): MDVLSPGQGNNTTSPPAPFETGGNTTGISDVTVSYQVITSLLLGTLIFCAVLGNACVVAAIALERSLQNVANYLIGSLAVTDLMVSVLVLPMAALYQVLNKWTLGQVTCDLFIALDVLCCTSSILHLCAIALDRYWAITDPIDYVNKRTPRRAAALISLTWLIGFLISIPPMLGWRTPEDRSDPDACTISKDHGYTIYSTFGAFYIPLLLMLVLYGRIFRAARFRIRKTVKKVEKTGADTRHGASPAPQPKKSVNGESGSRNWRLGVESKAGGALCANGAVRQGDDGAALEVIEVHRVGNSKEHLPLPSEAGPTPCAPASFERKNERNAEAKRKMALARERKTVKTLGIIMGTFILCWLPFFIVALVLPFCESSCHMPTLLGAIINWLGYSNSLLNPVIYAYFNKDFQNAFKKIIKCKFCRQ
Assay: 5-HT1A receptor Gαi1 BRET (G protein trimer dissociation);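 note: cells transiently co-expressing 5-HT1A receptor, luciferase-tagged Gαi1, Gβ3 and GFP-tagged Gγ9, seeded in 96-well plates for BRET measurement of G protein signaling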
Assay type: cell-based
Details: 5-HT1A receptor, G protein pathway; read-out: Gαi1 BRET EC50

[
  {
    "compound": "O=c1ccc2ccc(OCCCN3CCN4c5cccc6scc(c56)CC4C3)cc2[nH]1 (centres unmarked)",
    "EC50 / nM": 754
  },
  {
    "compound": "c1ccc(OCCN2CCN3c4cccc5scc(c45)CC3C2)cc1 (centres unmarked)",
    "EC50 / nM": 5260
  },
  {
    "compound": "CN(C)C(=O)N[C@H]1CC[C@H](CCN2CCN3c4cccc5scc(c45)CC3C2)CC1 (single isomer, unassigned; (-)) [(−)-I-27]",
    "EC50 / nM": 166
  },
  {
    "compound": "c1cc2c3c(csc3c1)CC1CN(CC3CC3)CCN21 (centres unmarked)",
    "EC50 / nM": 12800
  },
  {
    "compound": "O=C1[C@H]2CCCC[C@H]2C(=O)N1CCCCN1CCN2c3cccc4scc(c34)CC2C1 (some centres unmarked)",
    "EC50 / nM": 489
  },
  {
    "compound": "O=C(NCCN1CCN2c3cccc4scc(c34)CC2C1)c1ccc(F)cc1 (centres unmarked)",
    "EC50 / nM": 1320
  },
  {
    "compound": "O=C1CCc2ccc(OCCCN3CCN4c5cccc6scc(c56)CC4C3)cc2N1 (centres unmarked)",
    "EC50 / nM": 696
  },
  {
    "compound": "O=C(N[C@H]1CC[C@H](CCN2CCN3c4cccc5scc(c45)CC3C2)CC1)N1CCCCC1 (some centres unmarked)",
    "EC50 / nM": 1480
  }
]

====

Molecular target: dopamine D2 receptors (Homo sapiens (Human))
Assay: Dopamine D2 receptor Gαi1 BRET (G protein trimer dissociation)
Assay type: cell-based
Settings: read-out: Gαi1 BRET (Emax %)
Threshold check on Emax: at or above 60% gives fulfilled, strictly below gives not fulfilled.

[
  {
    "compound": "O=C1CCc2ccc(OCCCN3CCN4c5cccc6scc(c56)CC4C3)cc2N1 (centres unmarked)",
    "discrete_label": "fulfilled"
  },
  {
    "compound": "O=C1CCc2ccc(OCCCCN3CCN4c5cccc6scc(c56)CC4C3)cc2N1 (centres unmarked)",
    "discrete_label": "fulfilled"
  },
  {
    "compound": "c1cc2c3c(csc3c1)CC1CN(CCCOc3ccc4c(c3)OCO4)CCN21 (centres unmarked)",
    "discrete_label": "not fulfilled"
  },
  {
    "compound": "c1ccc(OCCN2CCN3c4cccc5scc(c45)CC3C2)cc1 (centres unmarked)",
    "discrete_label": "not fulfilled"
  },
  {
    "compound": "c1cc2c3c(csc3c1)CC1CN(CCCCOc3ccc4scnc4c3)CCN21 (centres unmarked)",
    "discrete_label": "not fulfilled"
  },
  {
    "compound": "CCCN1CCN2c3cccc4scc(c34)CC2C1 (centres unmarked)",
    "discrete_label": "not fulfilled"
  },
  {
    "compound": "O=C(N[C@H]1CC[C@H](CCN2CCN3c4cccc5scc(c45)CC3C2)CC1)N1CCCC1 (some centres unmarked)",
    "discrete_label": "not fulfilled"
  },
  {
    "compound": "COc1cc2c(cc1OC)C(=O)N(CCCCN1CCN3c4cccc5scc(c45)CC3C1)C2 (centres unmarked)",
    "discrete_label": "fulfilled"
  },
  {
    "compound": "OCCN1CCN2c3cccc4scc(c34)CC2C1 (centres unmarked)",
    "discrete_label": "not fulfilled"
  },
  {
    "compound": "O=C1c2ccccc2CCCN1CCCCN1CCN2c3cccc4scc(c34)CC2C1 (centres unmarked)",
    "discrete_label": "fulfilled"
  },
  {
    "compound": "O=C1[C@H]2CCCC[C@H]2C(=O)N1CCCCN1CCN2c3cccc4scc(c34)CC2C1 (some centres unmarked)",
    "discrete_label": "not fulfilled"
  },
  {
    "compound": "O=C1c2ccccc2CN1CCCCN1CCN2c3cccc4scc(c34)CC2C1 (centres unmarked)",
    "discrete_label": "not fulfilled"
  },
  {
    "compound": "O=C(N[C@H]1CC[C@H](CCN2CCN3c4cccc5scc(c45)CC3C2)CC1)N1CCCCC1 (some centres unmarked)",
    "discrete_label": "not fulfilled"
  },
  {
    "compound": "Fc1ccc(-c2cncc(CN3CCN4c5cccc6scc(c56)CC4C3)c2)cc1 (centres unmarked)",
    "discrete_label": "not fulfilled"
  },
  {
    "compound": "O=c1ccc2ccc(OCCCCN3CCN4c5cccc6scc(c56)CC4C3)cc2[nH]1 (centres unmarked)",
    "discrete_label": "fulfilled"
  },
  {
    "compound": "O=c1ccc2ccc(OCCCN3CCN4c5cccc6scc(c56)CC4C3)cc2[nH]1 (centres unmarked)",
    "discrete_label": "fulfilled"
  },
  {
    "compound": "O=C(CN1CCN2c3cccc4scc(c34)CC2C1)c1ccc(F)cc1 (centres unmarked)",
    "discrete_label": "not fulfilled"
  },
  {
    "compound": "Fc1ccc(CCN2CCN3c4cccc5scc(c45)CC3C2)cc1 (centres unmarked)",
    "discrete_label": "not fulfilled"
  },
  {
    "compound": "CN(C)C(=O)N[C@H]1CC[C@H](CCN2CCN3c4cccc5scc(c45)CC3C2)CC1 (some centres unmarked)",
    "discrete_label": "fulfilled"
  }
]
